# System: Serum
# measurement notes: Nitric oxide in rat serum at pH 7.4 in 37 degC after 1.5 hrs
# Format: ADME, cell-free
# Parameters: concentration or dose not given beside the values
# condition set: pH 7.4, 1.5 h
measure: Activity (%)
Reply numerically in %, unit not repeated.

Please report the recorded Activity for COc1ccc(/C(=C\c2ccc(S(C)(=O)=O)cc2)C(=O)OCCN(C)/[N+]([O-])=N/OCOC(C)=O)cc1 .
77.6

Please report the recorded Activity for CC(=O)OCO/N=[N+](\[O-])N(C)CCOC(=O)/C(=C/c1ccc(S(C)(=O)=O)cc1)c1ccccc1 .
83

Please report the recorded Activity for CN(CCO)/[N+]([O-])=N/[O-].[Na+] .
85

Please report the recorded Activity for CC(=O)OCO/N=[N+](\[O-])N(C)CCOC(=O)/C(=C/c1ccc(S(C)(=O)=O)cc1)c1ccc(Br)cc1 .
76.2

Please report the recorded Activity for CC(=O)OCO/N=[N+](\[O-])N(C)CCOC(=O)/C(=C/c1ccc(S(C)(=O)=O)cc1)c1ccc(F)cc1 .
82.1

The reported measurements were obtained from ChEMBL document CHEMBL1143874.
